experiment: cells; settings: Homo sapiens, PC-3, 72 h
Description: Cytotoxicity against human PC3 cells after 72 hrs by MTT assay
Below, each entry is listed alongside its reported IC50.
readout_name: IC50 (µM)

>>> observed_result("Cc1cccc(-c2ccnc(C(=O)Nc3ccc(Oc4ccnc5[nH]ccc45)cc3)c2)c1")
5.47
>>> observed_result("Cc1ccc(-c2ccnc(C(=O)Nc3ccc(Oc4ccnc5[nH]ccc45)c(F)c3)c2)cc1")
3.97
>>> observed_result("O=C(Nc1ccc(Oc2ccnc3[nH]ccc23)c(F)c1)c1cc(-c2ccc(F)cc2)ccn1")
0.71
>>> observed_result("O=C(Nc1ccc(Oc2ccnc3[nH]ccc23)c(F)c1)c1cc(-c2ccc(C(F)(F)F)cc2)ccn1")
4.35
>>> observed_result("O=C(Nc1ccc(Oc2ccnc3[nH]ccc23)c(F)c1)c1ccc(-c2ccccc2)cn1")
0.76
>>> observed_result("O=C(Nc1ccc(Oc2ccnc3[nH]ccc23)c(F)c1)c1ccc(-c2ccc(F)cc2F)cn1")
4.72

###

test system: HeLa; experiment: Cytotoxicity against human HeLa cells after 72 hrs by MTT assay
This listing pairs compounds with measured IC50.
readout_name: IC50 (µM)

>>> observed_result("Cc1cccc(-c2ccnc(C(=O)Nc3ccc(Oc4ccnc5[nH]ccc45)c(F)c3)c2)c1")
10.3
>>> observed_result("CCc1ccc(-c2ccnc(C(=O)Nc3ccc(Oc4ccnc5[nH]ccc45)c(F)c3)c2)cc1")
8.63
>>> observed_result("Cc1ccc(-c2ccnc(C(=O)Nc3ccc(Oc4ccnc5[nH]ccc45)c(F)c3)c2)c(C)c1")
11.9
>>> observed_result("COc1ccc(-c2ccnc(C(=O)Nc3ccc(Oc4ccnc5[nH]ccc45)c(F)c3)c2)cc1")
5.89
>>> observed_result("COc1ccc(-c2ccnc(C(=O)Nc3ccc(Oc4ccnc5[nH]ccc45)cc3)c2)cc1")
7.53

###

experiment: cells; details: Homo sapiens, PC-3, 72 h
pIC50: −log10 of the molar value.
Attribute: pIC50
readout_name: pIC50

>>> observed_result("CCc1ccc(-c2ccnc(C(=O)Nc3ccc(Oc4ccnc5[nH]ccc45)c(F)c3)c2)cc1")
5.53
>>> observed_result("O=C(Nc1ccc(Oc2ccnc3[nH]ccc23)cc1)c1cc(-c2ccc(Cl)cc2)ccn1")
4.60
>>> observed_result("O=C(Nc1ccc(Oc2ccnc3[nH]ccc23)cc1)c1cc(-c2ccccc2)ccn1")
5.49

###

test system: A549; assay: Cytotoxicity against human A549 cells after 72 hrs by MTT assay; conditions: A549, 72 h
Decision: IC50 beneath 4 µM gives 1; IC50 meeting or exceeding 4 µM gives -1.

>>> assigned_label("Cc1ccc(-c2ccc(C(=O)Nc3ccc(Oc4ccnc5[nH]ccc45)cc3)nc2)cc1")
-1
>>> assigned_label("O=C(Nc1ccc(Oc2ccnc3[nH]ccc23)c(F)c1)c1cc(-c2ccc(F)cc2F)ccn1")
-1
>>> assigned_label("O=C(Nc1ccc(Oc2ccnc3[nH]ccc23)c(F)c1)c1ccc(-c2ccccc2)cn1")
1
>>> assigned_label("O=C(Nc1ccc(Oc2ccnc3[nH]ccc23)c(F)c1)c1cc(-c2ccc(F)cc2)ccn1")
1
>>> assigned_label("Cc1ccc(-c2ccnc(C(=O)Nc3ccc(Oc4ccnc5[nH]ccc45)cc3)c2)cc1")
-1
>>> assigned_label("O=C(Nc1ccc(Oc2ccnc3[nH]ccc23)c(F)c1)c1ccc(-c2ccc(Cl)cc2)cn1")
-1
>>> assigned_label("COc1ccc(-c2ccnc(C(=O)Nc3ccc(Oc4ccnc5[nH]ccc45)c(F)c3)c2)cc1")
1
>>> assigned_label("Cc1ccc(-c2ccnc(C(=O)Nc3ccc(Oc4ccnc5[nH]ccc45)c(F)c3)c2)cc1")
1
>>> assigned_label("COc1ccc(-c2ccc(C(=O)Nc3ccc(Oc4ccnc5[nH]ccc45)cc3)nc2)cc1")
-1
>>> assigned_label("COc1ccc(-c2ccc(C(=O)Nc3ccc(Oc4ccnc5[nH]ccc45)c(F)c3)nc2)cc1")
1
>>> assigned_label("O=C(Nc1ccc(Oc2ccnc3[nH]ccc23)c(F)c1)c1ccc(-c2ccc(F)cc2F)cn1")
1
>>> assigned_label("O=C(Nc1ccc(Oc2ccnc3[nH]ccc23)c(F)c1)c1cc(-c2ccccc2)ccn1")
-1
>>> assigned_label("CCc1ccc(-c2ccc(C(=O)Nc3ccc(Oc4ccnc5[nH]ccc45)cc3)nc2)cc1")
-1
>>> assigned_label("O=C(Nc1ccc(Oc2ccnc3[nH]ccc23)c(F)c1)c1ccc(-c2ccc(F)cc2)cn1")
-1
>>> assigned_label("O=C(Nc1ccc(Oc2ccnc3[nH]ccc23)cc1)c1cc(-c2ccc(Cl)cc2)ccn1")
-1
>>> assigned_label("Cc1ccc(-c2ccc(C(=O)Nc3ccc(Oc4ccnc5[nH]ccc45)c(F)c3)nc2)cc1")
1
>>> assigned_label("O=C(Nc1ccc(Oc2ccnc3[nH]ccc23)c(F)c1)c1cc(-c2ccc(C(F)(F)F)cc2)ccn1")
-1
>>> assigned_label("Cc1cccc(-c2ccnc(C(=O)Nc3ccc(Oc4ccnc5[nH]ccc45)cc3)c2)c1")
-1
>>> assigned_label("Cc1ccc(-c2ccnc(C(=O)Nc3ccc(Oc4ccnc5[nH]ccc45)c(F)c3)c2)c(C)c1")
-1
>>> assigned_label("O=C(Nc1ccc(Oc2ccnc3[nH]ccc23)cc1)c1ccc(-c2ccc(F)cc2F)cn1")
-1
>>> assigned_label("CCc1ccc(-c2ccnc(C(=O)Nc3ccc(Oc4ccnc5[nH]ccc45)c(F)c3)c2)cc1")
1
>>> assigned_label("Cc1cccc(-c2ccnc(C(=O)Nc3ccc(Oc4ccnc5[nH]ccc45)c(F)c3)c2)c1")
1
>>> assigned_label("COc1ccc(-c2ccnc(C(=O)Nc3ccc(Oc4ccnc5[nH]ccc45)cc3)c2)cc1")
-1
>>> assigned_label("O=C(Nc1ccc(Oc2ccnc3[nH]ccc23)cc1)c1cc(-c2ccccc2)ccn1")
1
>>> assigned_label("O=C(Nc1ccc(Oc2ccnc3[nH]ccc23)cc1)c1ccc(-c2ccc(Cl)cc2)cn1")
-1

###

assay: cells; conditions: Homo sapiens, PC-3, 72 h
Consider the cut-off 3 µM. If the recorded IC50 is strictly smaller, the label is yes; if not, the label is no.

>>> assigned_label("O=C(Nc1ccc(Oc2ccnc3[nH]ccc23)c(F)c1)c1cc(-c2ccc(F)cc2F)ccn1")
"no"
>>> assigned_label("Cc1ccc(-c2ccc(C(=O)Nc3ccc(Oc4ccnc5[nH]ccc45)c(F)c3)nc2)cc1")
"yes"
>>> assigned_label("COc1ccc(-c2ccc(C(=O)Nc3ccc(Oc4ccnc5[nH]ccc45)cc3)nc2)cc1")
"no"
>>> assigned_label("COc1ccc(-c2ccnc(C(=O)Nc3ccc(Oc4ccnc5[nH]ccc45)c(F)c3)c2)cc1")
"yes"
>>> assigned_label("O=C(Nc1ccc(Oc2ccnc3[nH]ccc23)cc1)c1cc(-c2ccc(C(F)(F)F)cc2)ccn1")
"no"
>>> assigned_label("Cc1ccc(-c2ccnc(C(=O)Nc3ccc(Oc4ccnc5[nH]ccc45)c(F)c3)c2)c(C)c1")
"no"
>>> assigned_label("O=C(Nc1ccc(Oc2ccnc3[nH]ccc23)cc1)c1ccc(-c2ccc(Cl)cc2)cn1")
"no"
>>> assigned_label("Cc1cccc(-c2ccnc(C(=O)Nc3ccc(Oc4ccnc5[nH]ccc45)c(F)c3)c2)c1")
"yes"
>>> assigned_label("COc1ccc(-c2ccnc(C(=O)Nc3ccc(Oc4ccnc5[nH]ccc45)cc3)c2)cc1")
"no"

###

Overview of recorded pIC50 for various compounds
experiment: cells; conditions: Homo sapiens, PC-3, 72 h
pIC50: −log10 of the molar value.
readout_name: pIC50

>>> observed_result("O=C(Nc1ccc(Oc2ccnc3[nH]ccc23)c(F)c1)c1ccc(-c2ccc(Cl)cc2)cn1")
5.52
>>> observed_result("COc1ccc(-c2ccc(C(=O)Nc3ccc(Oc4ccnc5[nH]ccc45)c(F)c3)nc2)cc1")
6.19
>>> observed_result("O=C(Nc1ccc(Oc2ccnc3[nH]ccc23)c(F)c1)c1ccc(-c2ccc(F)cc2)cn1")
4.87

###

test: cells; settings: Homo sapiens, PC-3, 72 h
Reported IC50 values for a set of compounds
readout_name: IC50

>>> observed_result("Cc1ccc(-c2ccc(C(=O)Nc3ccc(Oc4ccnc5[nH]ccc45)cc3)nc2)cc1")
"> 10 µM"
>>> observed_result("CCc1ccc(-c2ccc(C(=O)Nc3ccc(Oc4ccnc5[nH]ccc45)cc3)nc2)cc1")
"> 10 µM"
>>> observed_result("O=C(Nc1ccc(Oc2ccnc3[nH]ccc23)cc1)c1ccc(-c2ccc(F)cc2F)cn1")
"> 10 µM"
